As shown below, each of these compounds has a reported viability, T/C value.
Tested on: 966289-007-R4-J1-PDC complex spheroid viability;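 note: spheroids exposed to the agents for seven days before readout; percent viability relative to DMSO vehicle control wells taken as 100%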
Experiment: Anticancer human tumor 966289-007-R4-J1-PDC patient-derived pancreatic adenocarcinoma cell line growth inhibition [GQUAD]
Conditions: second compound 0.1 µM; first compound 1 µM; stronger effect = lower value
Respond numerically; units are % and should not be typed.

{"compound": "C=CC(=O)N1CCN(c2nc(=O)n(-c3c(C)ccnc3C(C)C)c3nc(-c4c(O)cccc4F)c(F)cc23)C(C)C1 (stereo not given) + CN(C)c1ccc(Nc2c3ccc(NC(=O)CCN4CCCC4)cc3nc3cc(NC(=O)CCN4CCCC4)ccc23)cc1", "measurement_target": "966289-007-R4-J1-PDC complex spheroid viability", "unit_symbol": "%", "viability, T/C": 104}
{"compound": "O=c1[nH]cc(F)c(=O)[nH]1 + Cc1cnc(CNC(=O)c2c(=O)c3ccc(N4CCCN(C)CC4)nc3n3c2sc2ccccc23)cn1", "measurement_target": "966289-007-R4-J1-PDC complex spheroid viability", "unit_symbol": "%", "viability, T/C": 9.09}
{"compound": "O=c1[nH]cc(F)c(=O)[nH]1 + Cc1[nH]c2ccc(F)cc2c1-c1nc2c3cccnc3c3ncccc3c2[nH]1", "measurement_target": "966289-007-R4-J1-PDC complex spheroid viability", "unit_symbol": "%", "viability, T/C": 6.57}
{"compound": "CC(C)n1c(=O)n(C)c2cnc3cc(F)c(-c4ccc(OCCCN5CCCCC5)nc4)cc3c21 + CN(C)c1ccc(Nc2c3ccc(NC(=O)CCN4CCCC4)cc3nc3cc(NC(=O)CCN4CCCC4)ccc23)cc1", "measurement_target": "966289-007-R4-J1-PDC complex spheroid viability", "unit_symbol": "%", "viability, T/C": 106}
{"compound": "CC(C)(O)C1CCC(Nc2ccc3ncc(-c4cccc(C(F)(F)F)c4)n3n2)CC1 (stereo not given) + Cc1[nH]c2ccc(F)cc2c1-c1nc2c3cccnc3c3ncccc3c2[nH]1", "measurement_target": "966289-007-R4-J1-PDC complex spheroid viability", "unit_symbol": "%", "viability, T/C": 93.2}
{"compound": "CC1COCCN1c1cc(-c2ccnn2C)c2ccnc(-c3ccn[nH]3)c2n1 (stereo not given) + Cc1cnc(CNC(=O)c2c(=O)c3ccc(N4CCCN(C)CC4)nc3n3c2sc2ccccc23)cn1", "measurement_target": "966289-007-R4-J1-PDC complex spheroid viability", "unit_symbol": "%", "viability, T/C": 4.94}
{"compound": "C#Cc1c(F)ccc2cc(O)cc(-c3ncc4c(N5CC6CCC(C5)N6)nc(OCC56CCCN5CC(F)C6)nc4c3F)c12 (stereo not given) + CN(C)c1ccc(Nc2c3ccc(NC(=O)CCN4CCCC4)cc3nc3cc(NC(=O)CCN4CCCC4)ccc23)cc1", "measurement_target": "966289-007-R4-J1-PDC complex spheroid viability", "unit_symbol": "%", "viability, T/C": 89}
{"compound": "Cc1cccc(N(C)C(=O)C2C(O)CCN2c2nc(C)cc(C(F)(F)F)c2C#N)c1 (stereo not given) + Cc1cnc(CNC(=O)c2c(=O)c3ccc(N4CCCN(C)CC4)nc3n3c2sc2ccccc23)cn1", "measurement_target": "966289-007-R4-J1-PDC complex spheroid viability", "unit_symbol": "%", "viability, T/C": 34.9}
{"compound": "Nc1ccn(C2OC(CO)C(O)C2(F)F)c(=O)n1 (stereo not given) + Cc1cnc(CNC(=O)c2c(=O)c3ccc(N4CCCN(C)CC4)nc3n3c2sc2ccccc23)cn1", "measurement_target": "966289-007-R4-J1-PDC complex spheroid viability", "unit_symbol": "%", "viability, T/C": 0.9}
{"compound": "COc1ccc([C@@H](O)c2cc(-c3ncnc4cc(N5CCOCC5)ccc34)c(F)cc2Cl)nn1 + CN(C)c1ccc(Nc2c3ccc(NC(=O)CCN4CCCC4)cc3nc3cc(NC(=O)CCN4CCCC4)ccc23)cc1", "measurement_target": "966289-007-R4-J1-PDC complex spheroid viability", "unit_symbol": "%", "viability, T/C": 104}

Let us move to another entry and its viability, T/C.
Entry COc1ncnc(C2CC2)c1-c1ncc2cnn(Cc3ccc(-c4nc(C(F)(F)F)cn4C(C)C)cc3)c2n1 + Cc1[nH]c2ccc(F)cc2c1-c1nc2c3cccnc3c3ncccc3c2[nH]1 , system 966289-007-R4-J1-PDC complex spheroid viability: what viability, T/C was measured?;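 note: spheroids exposed to the agents for seven days before readout; percent viability relative to DMSO vehicle control wells taken as 100%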
99.6
